# Tested on: Streptococcus pneumoniae
# PROTOCOL SUMMARY: Antibacterial activity against Streptococcus pneumoniae ATCC 6301
# Type: functional
Let's look at some compounds and their measured MIC.
EXPERIMENTAL READOUT: MIC (µg/mL)

INSERT INTO measurements (compound, quantity_unit, observed_measurement) VALUES
  ('CO/N=C1\CCN(c2nc3c(cc2F)c(=O)c(C(=O)O)cn3-c2ccc(F)cc2F)CC1CN (racemic)', 'µg/mL', 1),
  ('CO/N=C1\CCN(c2c(F)cc3c(=O)c(C(=O)O)cn(C4CC4)c3c2OC)CC1CN (racemic)', 'µg/mL', 4),
  ('CO/N=C1\CCN(c2c(F)cc3c(=O)c(C(=O)O)cn(C4CC4)c3c2F)CC1CN (racemic)', 'µg/mL', 8),
  ('CCO/N=C1\CCN(c2c(F)cc3c(=O)c(C(=O)O)cn(C4CC4)c3c2F)CC1CN (racemic)', 'µg/mL', 8);
